tested on: HOP-92 NSCLC; test: NCI tumour cell line growth inhibition, 48 h
Exercise: for every item that follows, state its recorded TGI.

**Query** Dear colleague, I am looking for the recorded TGI of the following compound: "N=c1oc2ccccc2cc1-c1nc2ccccc2[nH]1"
**Result** 35.5 µM

**Query** Moving on to "COc1ccc(O)c(C(=O)CCC(=O)O)c1"
**Result** > 100 µM

**Query** Moving on to "C1=Cc2nc1c(-c1ccccc1)c1ccc([nH]1)c(-c1ccccc1)c1nc(c(-c3ccccc3)c3ccc([nH]3)c2-c2ccccc2)C=C1"
**Result** > 100 µM

**Query** Moving on to "CCOc1cccc2c1N[S@@](=O)S2"
**Result** > 100 µM

**Query** Moving on to CC(O)c1cc2c(s1)C(=O)c1c(C(C)O)csc1C2=O (stereo not given)
**Result** 0.762 µM

**Query** Moving on to Oc1[nH]c2ccccc2c1C1=Nc2ccccc2/C1=N\OCCOC1OCC(O)C(O)C1O (stereo not given)
**Result** > 100 µM

**Query** Moving on to CC1(C)OC(=S)N(c2ccccc2)C12C=Cc1cc3ccccc3nc1S2 (stereo not given)
**Result** > 100 µM

**Query** Moving on to O=C1C[C@@]23CCC4(CC2CCC[C@H]3O1)OCCO4 (stereo not given in full)
**Result** > 100 µM

**Query** Moving on to "CC(=O)O[C@H]1CC[C@@]2(C)C(=CC[C@@H]3[C@@H]2CC[C@]2(C)c4c(n[nH]c4C)C[C@@H]32)C1"
**Result** 39.8 µM

**Query** Moving on to "O=[N+]([O-])c1cc([As](Br)c2ccc(O)c([N+](=O)[O-])c2)ccc1O"
**Result** 2.96 µM

**Query** Moving on to "CC1(C)CO[P@@](=S)(c2ccccn2)O[C@@H]1c1ccccc1"
**Result** > 100 µM

**Query** Moving on to CC12CC(=O)Nc3ccccc3N1C(c1ccccc1)=NO2 (stereo not given)
**Result** > 100 µM

**Query** Moving on to "CCCc1nc(Cl)nc(Cl)c1Cl"
**Result** 0.532 µM

**Query** Moving on to "c1ccc2c(c1)NCc1cc3ccccc3nc1O2"
**Result** > 100 µM

**Query** Moving on to "CN(C)C(=S)/N=c1\ssc(=S)n1C"
**Result** > 100 µM

**Query** Moving on to CC(=O)C(C)C(=O)N1C(=O)N(C)C2(C)N(C)C(=O)NC12C (stereo not given)
**Result** > 100 µM

**Query** Moving on to "COc1ccc2c(O)c(S(=O)(=O)c3ccc(C)cc3)c(=O)oc2c1OC"
**Result** > 100 µM

**Query** Moving on to "Cc1ccc2nc3n[nH]c(N)c3nc2c1"
**Result** > 100 µM

**Query** Moving on to "CN(Cc1ccc(F)cc1)c1ccc(CO)c(Cl)c1"
**Result** 24 µM

**Query** Moving on to "Cc1ccc(-c2c(-c3ccccc3)[nH]c(C)c2C(=O)ONC(=O)c2ccccc2)cc1"
**Result** 4.09 µM

**Query** Moving on to "Nc1ccccc1C#CC(=O)c1cccc(C(F)(F)F)c1"
**Result** 4.84 µM

**Query** Moving on to "C=C1C[C@@H](O)[C@@H](Br)C(C)(C)[C@@]12C=CC(=O)CC2"
**Result** > 100 µM

**Query** Moving on to "O=c1cc(-c2ccccc2)[nH]c2cc(F)cc(F)c12"
**Result** > 100 µM

**Query** Moving on to "CCc1ccc2[nH]c(O)c(C3=Nc4ccccc4C3=O)c2c1"
**Result** > 100 µM

**Query** Moving on to "C/C(=N\NC(=S)N1CCC(N2CCCCC2)CC1)c1ccccn1"
**Result** 9.79 µM

Numbers sourced from PubChem BioAssay (NCI).
